# test.system: human Kv1.1/Kvβ1 potassium ion channel complex (Homo sapiens, UniProt Q09470)
# Construct: expressed in transfected cells; host or cells: Xenopus oocytes injected with cRNA
# Sequence (Q09470 whole entry, one chain of several): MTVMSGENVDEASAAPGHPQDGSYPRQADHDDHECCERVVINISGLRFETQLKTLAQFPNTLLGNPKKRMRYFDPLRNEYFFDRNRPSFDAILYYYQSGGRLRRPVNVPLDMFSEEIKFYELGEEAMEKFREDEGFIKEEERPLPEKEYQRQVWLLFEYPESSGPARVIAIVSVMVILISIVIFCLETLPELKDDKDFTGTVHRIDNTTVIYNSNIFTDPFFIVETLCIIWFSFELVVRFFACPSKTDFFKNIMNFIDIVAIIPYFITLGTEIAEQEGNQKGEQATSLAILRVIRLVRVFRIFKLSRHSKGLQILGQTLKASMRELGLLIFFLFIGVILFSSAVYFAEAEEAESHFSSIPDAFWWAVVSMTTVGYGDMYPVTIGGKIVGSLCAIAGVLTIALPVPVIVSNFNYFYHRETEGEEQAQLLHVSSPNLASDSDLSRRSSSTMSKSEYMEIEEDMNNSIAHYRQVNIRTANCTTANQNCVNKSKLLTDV
# assay.info: Xenopus oocytes current assay (inhibition of inactivation, voltage clamp)
# Type: cell-based
# measurement.parameters: Xenopus oocytes expressing hKv1.1/hKvβ1, relative to control bath solution, read-out: Percent Increase in Steady State Current Of human Kv1.1/Kvβ1 @ a concentration of 50 μM
endpoint: activation at 50 µM (%)

CN(C)c1ccc(NC(=O)C2C(=O)C3CC[C@](C)(C2=O)C3(C)C)cc1 (stereo partly drawn) : 27
CC1(C)C2CC1C(=O)C(C(=O)Nc1cc(Cl)cc(Cl)c1)C2=O (stereo not drawn) : 326
CC1(C)C2CC[C@]1(C)C(=O)C(C(=O)Nc1ccc(C(F)(F)F)cc1)C2=O (stereo partly drawn) : 53
CC1(C)C2CC1C(=O)C(C(=O)Nc1ccc(F)cc1)C2=O (stereo not drawn) : 94
CC1(C)C2CC1C(=O)C(C(=O)Nc1ccc(F)c(C(F)(F)F)c1)C2=O (stereo not drawn) : 282
O=C(Nc1cccc(C(F)(F)F)c1)C1C(=O)C2CCC(C2)C1=O (stereo not drawn) : 41
CC1(C)C2CC[C@@]1(C)C(=O)C(C(=O)Nc1ccc([N+](=O)[O-])cc1)C2=O (stereo partly drawn) : 75
CC1(C)C2CC[C@@]1(C)C(=O)C(C(=O)Nc1ccc(Cl)cc1)C2=O (stereo partly drawn) : 14
O=C(Nc1ccc(F)c(C(F)(F)F)c1)C1C(=O)C2CCC(C2)C1=O (stereo not drawn) : 43

====

Listing: melting point of selected molecules
Counter-ions that a name gives are not always drawn.
endpoint: melting point

CC1(C)C2CC[C@]1(C)C(=O)C(C(=O)Nc1ccc(F)c(Cl)c1)C2=O (some centres unmarked) [Example 10] : 87 to 89 °C
CC1(C)C2CC1C(=O)C(C(=O)Nc1ccc(F)c(Cl)c1)C2=O (centres unmarked) (as salt: sodium) [Example 30] : > 230 °C
O=C(Nc1ccc(C(F)(F)F)cc1)C1C(=O)C2CCC(C2)C1=O (centres unmarked) (as salt: sodium) [Example 26] : 250 to 260 °C
CC1(C)C2CC[C@]1(C)C(=O)C(C(=O)Nc1ccc(Cl)c(C(F)(F)F)c1)C2=O (some centres unmarked) [Example 7] : 118 to 120 °C
CC1(C)C2CC[C@@]1(C)C(=O)C(C(=O)Nc1ccc(Cl)c(C(F)(F)F)c1)C2=O (some centres unmarked) [Example 16] : 117 to 119 °C
CN(C)c1ccc(NC(=O)C2C(=O)C3CC[C@](C)(C2=O)C3(C)C)cc1 (some centres unmarked) [Example 9] : 93 to 95 °C
CC1(C)C2CC1C(=O)C(C(=O)Nc1ccc(Cl)c(Cl)c1)C2=O (centres unmarked) (as salt: sodium) [Example 32] : > 230 °C
CC1(C)C2CC1C(=O)C(C(=O)Nc1ccc(Cl)cc1)C2=O (centres unmarked) (as salt: sodium) [Example 36] : > 230 °C

====

Structures can show the parent of a compound that is named as a salt.
endpoint: melting point

CC1(C)C2CC1C(=O)C(C(=O)Nc1ccc(F)cc1)C2=O (stereo not shown) (as salt: sodium) : > 230 °C
CC1(C)C2CC[C@@]1(C)C(=O)C(C(=O)Nc1cc(C(F)(F)F)cc(C(F)(F)F)c1)C2=O (stereo partly shown) : 68 to 71 °C
O=C(Nc1cccc(C(F)(F)F)c1)C1C(=O)C2CCC(C2)C1=O (stereo not shown) : 68 to 69 °C
CC1(C)C2CC[C@]1(C)C(=O)C(C(=O)Nc1cccc(C(F)(F)F)c1)C2=O (stereo partly shown) : 60 to 62 °C
Cc1ccc(NC(=O)C2C(=O)C3CC[C@](C)(C2=O)C3(C)C)cc1 (stereo partly shown) : 80 to 82 °C
CC1(C)C2CC[C@@]1(C)C(=O)C(C(=O)Nc1ccc(C(F)(F)F)cc1)C2=O (stereo partly shown) : 78 to 81 °C
CC1(C)C2CC[C@]1(C)C(=O)C(C(=O)Nc1ccc([N+](=O)[O-])cc1)C2=O (stereo partly shown) : 170 to 172 °C
O=C(Nc1cc(C(F)(F)F)cc(C(F)(F)F)c1)C1C(=O)C2CCC(CC2)C1=O (stereo not shown) (as salt: sodium) : 286 to 288 °C
CC1(C)C2CC[C@]1(C)C(=O)C(C(=O)Nc1cc(C(F)(F)F)cc(C(F)(F)F)c1)C2=O (stereo partly shown) : 68 to 72 °C
CC1(C)C2CC[C@@]1(C)C(=O)C(C(=O)Nc1ccc(F)c(C(F)(F)F)c1)C2=O (stereo partly shown) : 96 to 98 °C
CC1(C)C2CC1C(=O)C(C(=O)Nc1cccc(Cl)c1)C2=O (stereo not shown) (as salt: sodium) : > 230 °C
CC1(C)C2CC1C(=O)C(C(=O)Nc1cccc(C(F)(F)F)c1)C2=O (stereo not shown) (as salt: sodium) : > 230 °C
CC1(C)C2CC[C@@]1(C)C(=O)C(C(=O)Nc1ccc(F)c(Cl)c1)C2=O (stereo partly shown) : 89 to 91 °C
O=C(Nc1ccc(F)c(C(F)(F)F)c1)C1C(=O)C2CCC(C2)C1=O (stereo not shown) : 97 to 100 °C
CC1(C)C2CC[C@]1(C)C(=O)C(C(=O)Nc1ccc(Cl)c(Cl)c1)C2=O (stereo partly shown) : 88 to 90 °C
CC1(C)C2CC[C@]1(C)C(=O)C(C(=O)Nc1cc(Cl)cc(Cl)c1)C2=O (stereo partly shown) : 112 to 114 °C
CC1(C)C2CC[C@@]1(C)C(=O)C(C(=O)Nc1ccc(Cl)cc1)C2=O (stereo partly shown) : 88 to 90 °C
CC1(C)C2CC[C@@]1(C)C(=O)C(C(=O)Nc1ccc(Cl)c(Cl)c1)C2=O (stereo partly shown) : 89 to 91 °C
O=C(Nc1ccc(Cl)c(C(F)(F)F)c1)C1C(=O)C2CCC(C2)C1=O (stereo not shown) : 136 to 137 °C
